Assay: reversal of MRP1-mediated doxorubicin resistance, pilot screen, H69AR cells, doxorubicin co-treatment (AID 601)
Conditions: H69AR cells, CellTiter-Glo, 72 h; compound alone cytotoxicity; at 10 µM
assay-metric: viability (%)
Entry rule: numbers only, all in %.

O=C(Nc1ccc(N2CCN(Cc3ccccc3Cl)CC2)cc1)c1cccnc1 ... 103
Cc1nn(C)c(C)c1CN(C)C(=O)c1cc2nc(-c3ccco3)cc(C(F)(F)F)n2n1 ... 86.6
O=C(NCc1cccnc1)c1cn(CCc2ccccc2)nn1 ... 109

INPUT: Query: viability; subject: COC(=O)c1sc(S(=O)(=O)NCc2cccs2)c(C(=O)OC)c1C
OUTPUT: 92.3

INPUT: Query: viability; subject: Cc1noc(C)c1COC(=O)c1ccccc1Oc1ccccc1
OUTPUT: 96.5

INPUT: Query: viability; subject: Nc1nc2sc3c(c2c(=O)s1)CCCC3
OUTPUT: 74.7

INPUT: Query: viability; subject: CC[N+](C)(CC)CCOC(=O)C(O)(c1ccccc1)C1CCCCC1 (stereo unspecified)
OUTPUT: 110

INPUT: Query: viability; subject: Nc1ccc(S(=O)(=O)Nc2ncccn2)cc1
OUTPUT: 104

INPUT: Query: viability; subject: Cn1c(-n2c(-c3ccco3)nc3ccccc3c2=O)nc2ccccc21
OUTPUT: 90.3

INPUT: Query: viability; subject: CCCNS(=O)(=O)c1ccc(OCC(=O)NCc2ccco2)cc1
OUTPUT: 83.7

INPUT: Query: viability; subject: O=C(NCc1nnc(SCC(=O)N2CCCCCC2)o1)c1ccco1
OUTPUT: 111

----------
Test: 384-well plate pilot, post-Golgi transport modulator project, inhibition of yeast transport mutant growth (AID 636)
Conditions: absorbance 615 nm, about 18 h, stronger effect = higher value
Calls of active or inactive are those of the source. Rule as the data show it: active = inhibition above about 31%; inactive = the rest.
assay-metric: inhibition

Consider the following illustrative entries.
CCOC(=O)c1[nH]c(C)c(C(=O)N2CCN(C(=O)c3ccco3)CC2)c1C ... -11.6% (inactive)
CCC(c1nnnn1C(C)(C)C)N1CCN(C2CCCC2)CC1 (stereo unspecified) ... 1.2% (inactive)
CCOc1ccc(N2C(N)=NC(N)=NC2(C)C)cc1 ... -0.26% (inactive)
Nc1cc(-c2ccc(Br)cc2)nn1S(=O)(=O)c1ccccc1 ... 0.26% (inactive)

INPUT: Query: inhibition; subject: CC1CCCCC1NC(=O)c1nn(C)c(=O)c2ccccc12 (stereo unspecified)
OUTPUT: -1.69% (inactive)

INPUT: Query: inhibition; subject: CNC(=O)CSc1nnc(-c2cc(C)cc(C)c2)o1
OUTPUT: -3.07% (inactive)

INPUT: Query: inhibition; subject: CC(C)Cn1c(N)c(C(=O)COC(=O)c2ccc3c(c2)OCCO3)c(=O)n(C)c1=O
OUTPUT: -4.46% (inactive)

INPUT: Query: inhibition; subject: Cc1cccc(C)c1NC(=O)CC(NCc1ccco1)C(=O)O (stereo unspecified)
OUTPUT: -7.7% (inactive)

INPUT: Query: inhibition; subject: COc1ccc(CC(NC(C)=O)C(=O)NC2CCN(c3nc(C)cc(C)c3C#N)CC2)c(OC)c1 (stereo unspecified)
OUTPUT: -0.41% (inactive)

INPUT: Query: inhibition; subject: Oc1ccccc1C1=Nc2nc3ccccc3n2C(c2ccccc2)C1 (stereo unspecified)
OUTPUT: -7.24% (inactive)

INPUT: Query: inhibition; subject: CC1CCN(C(=O)CN2C(=O)C(C)(C)Oc3ccc(C(=O)NC4CCCC4)cc32)CC1
OUTPUT: -5% (inactive)

INPUT: Query: inhibition; subject: COC(=O)c1cc2ccsc2n1Cc1nc(-c2ccc(OC)cc2)oc1C
OUTPUT: 0.13% (inactive)

INPUT: Query: inhibition; subject: COCCCNC(=O)C(Cc1ccccc1)NS(=O)(=O)c1ccc2c(c1)c(=O)n(C)c(=O)n2C (stereo unspecified)
OUTPUT: -2.63% (inactive)

INPUT: Query: inhibition; subject: C=CCOc1nc(N(C)C)nc(N(C)C)n1
OUTPUT: -4.67% (inactive)

INPUT: Query: inhibition; subject: Cc1nc2ccc(NC(=O)N3CCSCC3)cc2s1
OUTPUT: 1.84% (inactive)

INPUT: Query: inhibition; subject: CCOC(=O)c1c(C)oc2ccc(OCC(=O)N(CC)CC)cc12
OUTPUT: -5.26% (inactive)

INPUT: Query: inhibition; subject: COC(=O)C1=C(C)NC(=O)C1(NC(=O)CN1CCCC1=O)C(F)(F)F (stereo unspecified)
OUTPUT: -4.34% (inactive)

----------
Assay: Restrictive medium S. cerevisiae growth inhibition, OD615, pilot screen of yeast lifespan reduction project, restrictive growth control (AID 706);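 note: modified DeaD lifespan yeast strain shifted to restrictive glucose medium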
Settings: OD615, 48 h, at 10 µM, stronger effect = higher value
assay-metric: growth inhibition (%)
Entry rule: numbers only, all in %.

Consider the following illustrative entries.
O=C1N=C(c2ccccc2)C(c2ccccc2)N1 (configuration not stated) ... 0.595
CC(C)n1c(CCCO)nc2ccccc21 ... -5.23
Cc1ccc(-c2nc(CS(=O)CC(=O)NC3CCC(C)CC3)c(C)o2)cc1 (configuration not stated) ... 11.8
CCOC(=O)Cc1csc(SCn2nnc3ccccc3c2=O)n1 ... -9.13
CCOc1cc(/C=N/n2cnnc2)ccc1OCC(=O)Nc1ccccc1OC ... 0.62

INPUT: Query: growth inhibition; subject: CCOC(=O)N1CCN(C(=O)c2ccc(CN(c3ccc(C)c(C)c3)S(C)(=O)=O)cc2)CC1
OUTPUT: -1.85

INPUT: Query: growth inhibition; subject: Cc1onc(-c2ccccc2)c1C(=O)N1CCN(C/C=C/c2ccccc2)CC1
OUTPUT: 5.24

INPUT: Query: growth inhibition; subject: CCOCCCNC(=O)c1cccs1
OUTPUT: -4.17

INPUT: Query: growth inhibition; subject: CCN(CC)P1(=O)OC(c2cc(OC)c(OC)c(OC)c2)=Nc2c1c(C)nn2-c1ccccc1 (configuration not stated)
OUTPUT: -13.3

----------
Test: OD615 S. cerevisiae growth inhibition, permissive medium, pilot counter-assay, permissive growth control for S. cerevisiae lifespan shortening project (AID 705)
Settings: OD615, 24 h, at 10 µM, stronger effect = higher value
assay-metric: growth inhibition (%)
Entry rule: numbers only, all in %.

Consider the following illustrative entries.
Cc1cc(=O)n2[nH]c(C)c(-c3ccc(Cl)cc3)c2n1 ... 3.86
Cc1cc(C(C)(C)C)oc1C(=O)Nc1ccc(CC(=O)O)cc1 ... -5.71
COc1ccc(NC(=O)C(c2ccccc2)N(C)C(=O)c2cnccn2)cc1 (stereo unspecified) ... -4.62
CCOC(=O)c1cnc2ccc(C(=O)OC)cc2c1NCCN1CCOCC1 ... -6.57
CC1=C(C(N)=O)C(c2ccccn2)n2nc(SCc3ccccc3Cl)nc2N1 (stereo unspecified) ... -4.42

INPUT: Query: growth inhibition; subject: COc1ccc(C2c3c(oc4ccccc4c3=O)C(=O)N2c2ccccn2)cc1OC (stereo unspecified)
OUTPUT: -10.4

INPUT: Query: growth inhibition; subject: CSC1=NCCN1C(=O)c1ccc(Br)o1
OUTPUT: -2.9

INPUT: Query: growth inhibition; subject: COc1ccc(NC(=O)CSc2nnc(Cn3c(=O)sc4ccccc43)n2C)c(OC)c1
OUTPUT: 2.11

INPUT: Query: growth inhibition; subject: Cc1ccc2cc(CCNC(=O)C(C)(C)C)c(=O)[nH]c2c1
OUTPUT: -5.49

INPUT: Query: growth inhibition; subject: CCCCNC(=O)c1ccc(NC(=O)C2CCCO2)cc1 (stereo unspecified)
OUTPUT: -3.29

INPUT: Query: growth inhibition; subject: Cc1cccc(N2CCN(C(=O)c3cc4c(=O)n(C)c5ccccc5c4n3C)CC2)c1C
OUTPUT: -7.02

----------
Assay: growth suppression of beta-catenin knockout HCT116, pilot screen, human colon tumor cells (AID 823);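 note: 0% = wells killed by 20 µM Hyamine and 100% = untreated DMSO cell wells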
Conditions: CellTiter-Glo, 60 h, at 10 µM, stronger effect = lower value
Records with an inconclusive call do not appear.
assay-metric: viability (%)
Entry rule: numbers only, all in %.

INPUT: Query: viability; subject: c1ccc(Cc2nnc3sc(-c4ccco4)nn23)cc1
OUTPUT: 108

INPUT: Query: viability; subject: CCN1CCN(Cc2nc3c(c(=O)n(C)c(=O)n3C)n2CCCc2ccccc2)CC1
OUTPUT: 91

INPUT: Query: viability; subject: CC(C)N1C(=O)C2C(c3ccccc3O)NC(C)(C(=O)O)C2C1=O (stereo unspecified)
OUTPUT: 101

INPUT: Query: viability; subject: O=C(O)CC12CSc3[nH]c(=O)sc3C1c1ccccc1OC2=O (stereo unspecified)
OUTPUT: 101

----------
Catalogue of compounds with associated growth inhibition
Experiment: Restrictive medium S. cerevisiae growth inhibition, OD615, pilot screen of yeast lifespan reduction project, restrictive growth control (AID 706);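 note: modified DeaD lifespan yeast strain shifted to restrictive glucose medium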
Settings: OD615, 48 h, at 10 µM, stronger effect = higher value
Entry rule: numbers only, all in %.

Consider the following illustrative entries.
C#CCN1C(=O)C(O)(CC(=O)c2ccc(OC)c(OC)c2)c2ccccc21 (stereo not given) ... 0.69
Cn1c(C(=O)N2CCN(C(=O)c3ccco3)CC2)cc2c(=O)n(C)c3ccccc3c21 ... 5.88
CN(C)CCN(Cc1ccccc1)c1ccnc(N(C)C)c1C#N ... -17.6
CS(=O)(=O)N(CC(=O)NCc1ccncc1)c1cc(Cl)cc(Cl)c1 ... -10.8

INPUT: Query: growth inhibition; subject: O=C(CN1CCN(c2ccccn2)CC1)Nc1cccc(C(F)(F)F)c1
OUTPUT: 5.07

Every entry's value here was drawn from PubChem BioAssay.
